- Tested on: Fusarium graminearum
- assay-name: Fungicidal activity against Fusarium graminearum at 50 ug/ml by growth inhibition method
- Assay type: functional
- Design: scale not given: the % may be the effect or the level left
Categories are defined by ranges of Activity, namely low-valued (below 20%), mid-valued (20% to below 30%), high-valued (30% or more)

[
  {
    "compound": "Cc1ccc(N(C(=O)c2snnc2C)C(C(=O)NC2CCCCC2)c2ccc(C(F)(F)F)cc2)cc1F (stereo unspecified)",
    "class-name": "mid-valued"
  },
  {
    "compound": "Cc1ccc(N(C(=O)c2snnc2C)C(C(=O)NC2CCCCC2)c2ccc(O)cc2)cc1F (stereo unspecified)",
    "class-name": "mid-valued"
  },
  {
    "compound": "Cc1ccc(N(C(=O)c2snnc2C)C(C(=O)NC2CCCCC2)c2ccc(F)cc2)cc1F (stereo unspecified)",
    "class-name": "low-valued"
  },
  {
    "compound": "Cc1ccc(N(C(=O)c2snnc2C)C(C(=O)NC2CCCCC2)c2cccc([N+](=O)[O-])c2)cc1Cl (stereo unspecified)",
    "class-name": "low-valued"
  },
  {
    "compound": "Cc1ccc(N(C(=O)c2snnc2C)C(C(=O)NC2CCCCC2)c2ccccc2C)cc1F (stereo unspecified)",
    "class-name": "high-valued"
  },
  {
    "compound": "Cc1ccc(N(C(=O)c2snnc2C)C(C(=O)NC2CCCCC2)c2ccccc2F)cc1F (stereo unspecified)",
    "class-name": "low-valued"
  },
  {
    "compound": "Cc1ccc(N(C(=O)c2snnc2C)C(C(=O)NC2CCCCC2)c2cccc([N+](=O)[O-])c2)cc1F (stereo unspecified)",
    "class-name": "mid-valued"
  },
  {
    "compound": "Cc1ccc(N(C(=O)c2snnc2C)C(C(=O)NC2CCCCC2)c2ccccc2F)cc1Cl (stereo unspecified)",
    "class-name": "high-valued"
  },
  {
    "compound": "Cc1ccc(N(C(=O)c2snnc2C)C(C(=O)NC2CCCCC2)c2ccc(Cl)cc2)cc1F (stereo unspecified)",
    "class-name": "low-valued"
  },
  {
    "compound": "Cc1ccc(N(C(=O)c2snnc2C)C(C(=O)NC2CCCCC2)c2ccccc2Cl)cc1F (stereo unspecified)",
    "class-name": "mid-valued"
  },
  {
    "compound": "Cc1ccc(N(C(=O)c2snnc2C)C(C(=O)NC2CCCCC2)c2cccc(C(F)(F)F)c2)cc1F (stereo unspecified)",
    "class-name": "high-valued"
  },
  {
    "compound": "Cc1ccc(N(C(=O)c2snnc2C)C(C(=O)NC2CCCCC2)c2ccccc2C(F)(F)F)cc1Cl (stereo unspecified)",
    "class-name": "low-valued"
  },
  {
    "compound": "Cc1ccc(N(C(=O)c2snnc2C)C(C(=O)NC2CCCCC2)c2ccccc2[N+](=O)[O-])cc1F (stereo unspecified)",
    "class-name": "high-valued"
  },
  {
    "compound": "Cc1ccc(C(C(=O)NC2CCCCC2)N(C(=O)c2snnc2C)c2ccc(C)c(F)c2)cc1 (stereo unspecified)",
    "class-name": "mid-valued"
  },
  {
    "compound": "Cc1ccc(N(C(=O)c2snnc2C)C(C(=O)NC2CCCCC2)c2ccccc2C(F)(F)F)cc1F (stereo unspecified)",
    "class-name": "low-valued"
  },
  {
    "compound": "Cc1ccc(N(C(=O)c2snnc2C)C(C(=O)NC2CCCCC2)c2ccc(Cl)cc2)cc1Cl (stereo unspecified)",
    "class-name": "high-valued"
  }
]

Entry source: ChEMBL document CHEMBL3045927
